// data source = paper PMC12396409

System: P. falciparum 3D7 parasites
Assay: P. falciparum growth inhibition assay, 2-cycle (120 h treatment), delayed-death screen and dose-response
Format: cell-based, Plasmodium falciparum
Details: library screen at 2 μg/mL, 120 h, % growth, replicate 2
Listed next: entries and their corresponding Pf_120h_%Growth_Rep2.
Give the number first and the unit second.

# MOLECULE, SYSTEM TESTED, ASSAY VALUE
rows = [
    ("C[C@H]1CC[C@H]2[C@@H](C=C[C@@H]3[C@H]4[C@@H](C)O[C@]5(O)[C@@H](CO)N(C)C(=O)[C@]45C(=O)[C@@]32C)C1", "P. falciparum 3D7 parasites", "108.30%"),
    ("C=C1CC[C@H]2C(C)(C)CCC[C@]2(C)[C@H]1C[C@@]12C[C@H]3C(=O)N4CCC=C4C(=O)N3[C@@H]1Nc1ccccc12", "P. falciparum 3D7 parasites", "80.10%"),
]

Then there is this molecule:
Lab note: measured Pf_120h_%Growth_Rep2 of `CC(=O)O[C@@H]1[C@@H]2O[C@H]2[C@@](C)(O)C(=O)[C@@H](C)C/C=C\[C@H]2[C@H](O)C(C)=C(C)[C@H]3[C@H](Cc4ccccc4)NC(=O)[C@@]123` was 15.35%

* * *

Tested on: P. falciparum 3D7 parasites
Assay: P. falciparum growth inhibition assay, 2-cycle (120 h treatment), delayed-death screen and dose-response
Type: cell-based, Plasmodium falciparum
Conditions: library screen at 2 μg/mL, 120 h, % growth, replicate 2
*1 amine or outer side, *2 acyl side, *3 side chain or, on linkers, in order; H or OH if unused. Where a SMILES comes first, the peptide text is derived from it. Bridges are numbered along the chain shown (N, C = ends). [ ]: non-standard residue; d: D form. The star is where a group is joined. hTyr(3S-OH,4S-OH,3'-OSO3H) = N[C@H](C(=O)O)[C@H](O)[C@@H](O)c1ccc(O)c(OS(=O)(=O)O)c1; Orn(4R-OH,5R-OH) = O=C([C@H](C[C@@H](O)[C@@H](O)N[*:3])N[*:1])[*:2]; Pro(3S-OH,4S-Me) = C[C@H]1CN[C@H](C(=O)O)[C@H]1O; Octatrienoyl(2E,4E,6E) = C/C=C/C=C/C=C/C(=O)*; Gln(3R-OH) = NC(=O)C[C@@H](O)[C@H](N)C(=O)O; Pro(4R-Me) = C[C@H]1CN[C@H](C(=O)O)C1; Hyp = O=C(O)[C@@H]1C[C@@H](O)CN1; NMeA = CN[C@@H](C)C(=O)O
Threshold rule: Pf_120h_%Growth_Rep2 greater than or equal to 80% is T; below that, F.

# COMPOUND, ASSIGNED CLASS
data = [
    ("CC1(O)Cc2oc3cc(O)c(O)c(C(=O)O)c3c(=O)c2CO1 (stereo not shown)", "T"),
]

Problem: Hi team, for `CS(=O)(=O)c1ccc([C@@H](O)[C@H](N)CF)cc1` , is the recorded Pf_120h_%Growth_Rep2 at or above 80%?
Result: T

Problem: Hi team, for `CO[C@H]1\C=C/C=C\C=C/C[C@H](OC(=O)[C@@H](C)NC(=O)C2CCCCC2)[C@H](C)[C@@H](O)/C(C)=C\CCc2cc(O)cc(c2O)NC(=O)C1` , is the recorded Pf_120h_%Growth_Rep2 at or above 80%?
Result: F

Problem: Hi team, for `CCCCCCCCCCCC(=O)N[C@H]1CCOC1=O` , is the recorded Pf_120h_%Growth_Rep2 at or above 80%?
Result: T

Problem: Hi team, for COCCC[C@H]1O[C@@](O)([C@H](C)C2CC(OC)C(O)/C=C(C)/C=C(C)/C=C(/C)C(O[C@H]3O[C@H](C)[C@@H](OC)[C@H](O)[C@H]3O)C(C)/C=C(C)/C=C(OC)\C=C(/C)C(=O)O2)[C@H](OC)[C@@H](O)[C@]1(C)O[C@H]1C[C@H](O)[C@H](O[C@H]2C[C@@](C)(O)[C@H](O)[C@@H](C)O2)[C@@H](C)O1 (stereo partly shown) , is the recorded Pf_120h_%Growth_Rep2 at or above 80%?
Result: F

Problem: Hi team, for `CC(=O)OC[C@]12[C@H](O)C(=O)C(C)=C[C@H]1O[C@@H]1[C@H](O)C[C@@]2(C)[C@]12CO2` , is the recorded Pf_120h_%Growth_Rep2 at or above 80%?
Result: F

Problem: Hi team, for `CN1C(=O)c2ccccc2-n2c(nc3ccccc3c2=O)[C@@H]1Cc1ccccc1` , is the recorded Pf_120h_%Growth_Rep2 at or above 80%?
Result: T

Problem: Hi team, for C/C=C/C=C/C=C/C(=O)N[C@@H](Cc1ccccc1)C(=O)N[C@H]1COC(=O)[C@@H]2C[C@@H](C)CN2C(=O)[C@H](C)NC(=O)[C@H](C)N(C)C(=O)[C@@H]2CCCN2C1=O [A 54556A] ({Octatrienoyl(2E,4E,6E)}-FSP[NMeA]A[Pro(4R-Me)]; ester 2-C) , is the recorded Pf_120h_%Growth_Rep2 at or above 80%?
Result: F

Problem: Hi team, for `CC1=C[C@H]2O[C@@H]3[C@H](O)C[C@](C)([C@@]2(CO)[C@H](O)C1=O)[C@]31CO1` , is the recorded Pf_120h_%Growth_Rep2 at or above 80%?
Result: F

Problem: Hi team, for `COc1c(Cl)c(O)c(Cl)c(C)c1C(=O)O[C@H]1[C@H](O)C[C@H](O[C@H]2[C@@H](O)CC(=O)O[C@@H]2C)O[C@@H]1C` , is the recorded Pf_120h_%Growth_Rep2 at or above 80%?
Result: T

Problem: Hi team, for `CC(=O)c1c(O)cc(O)c(C(C)=O)c1O` , is the recorded Pf_120h_%Growth_Rep2 at or above 80%?
Result: T

Problem: Hi team, for `COC1=C(OC)C(=O)C(C)=CC1=O` , is the recorded Pf_120h_%Growth_Rep2 at or above 80%?
Result: F

Problem: Hi team, for CC(C)CCCCCC=CCC(=O)N[C@@H](CC(=O)O)C(=O)N[C@@H]1C(=O)N2CCCC[C@@H]2C(=O)N[C@@H](C(C)C(=O)O)C(=O)N[C@@H](CC(=O)O)C(=O)NCC(=O)N[C@@H](CC(=O)O)C(=O)NCC(=O)N[C@H](C(C)N)C(=O)N[C@@H](C(C)C)C(=O)N2CCC[C@H]2C(=O)NC1C (stereo partly shown) , is the recorded Pf_120h_%Growth_Rep2 at or above 80%?
Result: T

Problem: Hi team, for `CC(=O)NCCc1cnc[nH]1` , is the recorded Pf_120h_%Growth_Rep2 at or above 80%?
Result: T

Problem: Hi team, for COc1ccc2c(c1)C(=O)NC(Cc1ccccc1)C(=O)NCCC(=O)N1CCCC1C(=O)N2 (stereo not shown) , is the recorded Pf_120h_%Growth_Rep2 at or above 80%?
Result: T

Problem: Hi team, for `CC(=O)OC[C@]12CCC(C)=C[C@H]1O[C@@H]1[C@H](O)[C@@H](O)[C@@]2(C)[C@]12CO2` , is the recorded Pf_120h_%Growth_Rep2 at or above 80%?
Result: F

Problem: Hi team, for `CO[C@H]1C[C@H](O[C@H]2[C@H](C)O[C@@H](O[C@@H]3/C(C)=C/C[C@@H]4C[C@@H](C[C@]5(C=C[C@H](C)[C@@H](C(C)C)O5)O4)OC(=O)[C@@H]4C=C(C)[C@@H](O)[C@H]5OC/C(=C\C=C\[C@@H]3C)[C@]54O)C[C@@H]2OC)O[C@@H](C)[C@@H]1O` , is the recorded Pf_120h_%Growth_Rep2 at or above 80%?
Result: F

Problem: Hi team, for Cc1c2c(c(O)c3c(O)ccc(Cl)c13)C(=O)[C@]1(O)C(O)=C(C(N)=O)C(=O)[C@@H](N(C)C)[C@@H]1C2.Cl [Anhydrochlortetracycline hydrochloride] , is the recorded Pf_120h_%Growth_Rep2 at or above 80%?
Result: T

Problem: Hi team, for C[C@@H](O)[C@@H]1NC(=O)[C@@H](N)C[C@@H](O)[C@@H](O)NC(=O)[C@@H]2[C@@H](O)[C@@H](C)CN2C(=O)[C@H]([C@H](O)CC(N)=O)NC(=O)[C@H]([C@H](O)[C@@H](O)c2ccc(O)c(OS(=O)(=O)O)c2)NC(=O)[C@@H]2C[C@@H](O)CN2C1=O [FR 179642] (H-[Orn(4R-OH,5R-OH)]T[Hyp][hTyr(3S-OH,4S-OH,3'-OSO3H)][Gln(3R-OH)][Pro(3S-OH,4S-Me)]; lactam 1-C) , is the recorded Pf_120h_%Growth_Rep2 at or above 80%?
Result: T

Problem: Hi team, for `CC1(C)CCC[C@]2(C)[C@@H](CO)C(CO)=CC[C@@H]12` , is the recorded Pf_120h_%Growth_Rep2 at or above 80%?
Result: T
